tested on: PC-3; assay: Cytotoxicity against human PC3 cells assessed as cell viability at 10 uM after 24 hrs by MTT assay relative to control; assay type: functional; conditions: PC-3, 24 h, read-out: Activity
endpoint: viability at 10 µM (%)
Output spec: scalar in %, unitless text.

Solved entries:
INSERT INTO measurements (compound, endpoint_result) VALUES
  ('C=C1C(=O)O[C@@H]2[C@H]3O[C@]3(C)CC/C=C(/COC(=O)c3cc(-c4ccc(Cl)cc4)on3)CC[C@@H]12', 95.2),
  ('C=C1C(=O)O[C@@H]2[C@H]3O[C@]3(C)CC/C=C(/C)[C@@H](OC(C(=O)OCC)c3ccc(C(F)(F)F)cc3)C[C@@H]12 (stereo not given in full)', 60.4),
  ('C=C1C(=O)O[C@@H]2[C@H]3O[C@]3(C)CC/C=C(/COC(=O)c3cc(C(F)(F)F)cc(C(F)(F)F)c3)CC[C@@H]12', 3.7),
  ('C=C1C(=O)O[C@@H]2[C@H]3O[C@]3(C)CC/C=C(/COC(=O)Nc3ccc(F)cc3F)CC[C@@H]12', 89.8);

--- query ---
// viability at 10 µM (PC-3) for `C=C1C(=O)O[C@@H]2[C@H]3O[C@]3(C)CC/C=C(/C)[C@@H](OC(=O)Nc3cccc4ccccc34)C[C@@H]12` = 83.4
